These entries and their values trace back to PubChem BioAssay (NCI).

- Test system: T-47D breast
- assaySummary: NCI tumour cell line growth inhibition, 48 h; in the data active = GI50 below about 0.43 µM; inactive = the rest
The reply should name one outcome from active, inactive

input: Would you mind telling me which call this test gave COc1ccc(C2CC(c3ccc4ccccc4c3)=NN2c2nc(O)c(C3=c4cc(OC)ccc4=NC3=O)s2)cc1 (stereo not given) ?
output: active

input: Would you mind telling me which call this test gave COc1cc(/C=C/C(=O)c2c(C)nc3ccccc3c2C)ccc1OCCCCOc1cc2c(cc1OC)C(=O)N1CCC[C@H]1C=N2 ?
output: active

input: Would you mind telling me which call this test gave CCCOc1ccc(/C=N/Nc2cc(C)nc3ccc(Cl)cc23)cc1 ?
output: inactive

input: Would you mind telling me which call this test gave COc1cc(/C=C/C(=O)c2ccc(F)cc2)ccc1OCCCCCOc1cc2c(cc1OC)C(=O)N1CCCC1C=N2 (stereo not given) ?
output: active

input: Would you mind telling me which call this test gave CCCCN(CC)CCCCCCCCCCN1CCCc2cc(OC)ccc21 ?
output: inactive

----------
- Test system: MCF7 breast
- assaySummary: NCI tumour cell line growth inhibition, 48 h; in the data active means GI50 below about 0.43 µM; inactive means the rest
The reply should name one outcome from true (1) (active), false (0) (inactive)

N#Cc1c2ccccc2c2nnc3ccc(C(F)(F)F)cc3n12 :: false (0)
CCC(C)CC(C)C(=O)c1c(O)ccn(O)c1=O (centres undefined) :: false (0)
O=C(O)c1ccc(C(=O)O)c(C(=O)O)c1.[NH-]C1CCCCC1[NH-].[Pt+2] :: false (0)
COc1ccc(/C=C/C(=O)c2ccc(Nc3nc(Nc4ccc(F)cc4)nc(Nc4ccc(Cl)cc4)n3)cc2)cc1 :: true (1)
CCN(CC)CC(O)COc1c(Br)c(Br)c(Br)c2c1OC(C)(C)C2 (centres undefined) :: false (0)
C/C(=N\O)c1cccc(Nc2cc(-c3ccccc3)nc3c(O)cccc23)c1 :: true (1)

input: Would you mind telling me which call this test gave FC(F)(F)c1ccc(-c2ncc(-c3ccc(C(F)(F)F)cc3)c(NCc3cc(C(F)(F)F)cc(C(F)(F)F)c3)n2)cc1 ?
output: false (0)

input: Would you mind telling me which call this test gave CCOC(=O)Nc1ccc2c(c1)N(C(=O)CCN(CC)CC)c1ccccc1S2 ?
output: false (0)

input: Would you mind telling me which call this test gave O=C1/C(=C\c2ccccc2)CN(C(=O)c2ccccc2)C/C1=C\c1ccccc1 ?
output: true (1)

----------
- Tested on: T-47D breast
- assaySummary: NCI tumour cell line growth inhibition, 48 h
Listing of recorded TGI by entry.
Give just the numeric value; µM need not be written.

Example cases with answers are listed next.
CCCNCC(O)CNc1ccc(NCC(O)CNCCC)c2c1C(=O)c1ccccc1C2=O (stereo not given) :: 14.6
COc1cc(/C=C/C(=O)c2c(C)nc3ccccc3c2C)ccc1OCCCCOc1cc2c(cc1OC)C(=O)N1CCC[C@H]1C=N2 :: 1.36
C/C1=C/C[C@@H](/C(C)=C/c2csc(C)n2)OC(=O)C[C@H](O)C(C)(C)C(=O)[C@H](C)[C@@H](O)[C@@H](C)CCC1 :: 0.361
CC(C)OCc1cc(CN2CCN(c3cccc(Cl)c3)CC2)c(O)c2ncccc12 :: 18.4
Cc1[nH]c2nc3c(ncn3COCCO)c(=O)n2c1C(c1ccccc1)(c1ccccc1)c1ccccc1 :: 29.7

input: // query TGI value for entry COc1ncc(-c2ccc3nccc(C#CCN4CCN(S(C)(=O)=O)CC4)c3c2)cc1NS(=O)(=O)c1ccc(F)cc1F
output: 0.0178

input: // query TGI value for entry CCOC(=O)Nc1ccc2c(c1)N(C(=O)CCN(CC)CC)c1ccccc1S2
output: 87.9

input: // query TGI value for entry CCN(CC)CC(O)COc1c(Br)c(Br)c(Br)c2c1OC(C)(C)C2 (stereo not given)
output: 41

input: // query TGI value for entry Cc1cccc(N=C/C=C(\Cl)c2ccc3ccccc3c2)c1
output: 37.2

input: // query TGI value for entry O=C1c2cccnc2C(=O)c2c1c(C(=O)OCCc1ccccn1)c1ccccn21
output: 8.39
